- experimentNotes: qHTS assay to identify small molecule agonists of the sonic hedgehog signaling (Shh) pathway (AID 1259368);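 also: NIH/3T3-derived 3T3Gli1-Luc cells carrying a stable Gli1-driven firefly luciferase reporter; nearly all actives have a fitted effect of over 15% in size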
- conditionLabel: NIH/3T3 Gli1-Luc reporter, luciferase, 24 h; series mostly up to 92.4 µM
Calls of active or inactive are those of the source. Calls follow the shape of the full dose curve.

sampleSmiles: CC(C)[C@H](N)C(=O)OCCOCn1cnc2c(=O)[nH]c(N)nc21
activity change: inactive
--
sampleSmiles: CC(C)CCOC(=O)CC(C)C
activity change: inactive
--
sampleSmiles: CC(=O)OC(C)(C)C
activity change: inactive
--
sampleSmiles: Nc1ncnc2c1ncn2Cc1c(F)cccc1Cl
activity change: inactive
--
sampleSmiles: O=C(O)/C=C/c1ccc(Cn2ccnc2)cc1
activity change: inactive
--
sampleSmiles: CCCCc1ccc(N)cc1
activity change: inactive
--
sampleSmiles: CSc1ccc(C=O)cc1
activity change: inactive

----------
- tgt: Cytochrome P450 2D6 (Homo sapiens) (UniProt P10635)
- Sequence (P10635 whole entry, looked up): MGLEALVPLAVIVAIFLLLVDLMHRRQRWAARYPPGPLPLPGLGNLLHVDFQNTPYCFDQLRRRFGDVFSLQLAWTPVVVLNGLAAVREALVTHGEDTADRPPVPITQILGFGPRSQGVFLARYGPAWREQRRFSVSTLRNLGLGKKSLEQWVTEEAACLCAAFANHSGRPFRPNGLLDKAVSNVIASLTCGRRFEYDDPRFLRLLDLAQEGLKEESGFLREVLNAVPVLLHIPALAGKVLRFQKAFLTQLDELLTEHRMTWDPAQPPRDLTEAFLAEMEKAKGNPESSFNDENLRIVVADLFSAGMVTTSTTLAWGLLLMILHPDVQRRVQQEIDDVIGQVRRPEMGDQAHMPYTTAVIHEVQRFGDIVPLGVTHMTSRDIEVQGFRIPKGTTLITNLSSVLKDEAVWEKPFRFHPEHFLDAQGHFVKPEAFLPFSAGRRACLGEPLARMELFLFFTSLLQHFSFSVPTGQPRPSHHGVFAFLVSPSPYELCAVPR
- experimentNotes: Cytochrome P450 Family 2 Subfamily D Member 6 (CYP2D6) small molecule antagonists: luciferase reporter qHTS assay (AID 1671196); also: nearly all actives have a fitted effect of over 50% in size
- conditionLabel: P450-Glo CYP2D6 enzyme assay, luciferin luminescence, 1 h; series mostly up to 115 µM
Records with an inconclusive call do not appear. Calls of active or inactive are those of the source. Calls come from the whole dose curve; as a rule, active = well fitted inhibition curve with a large enough effect in the repeat runs; inconclusive = weak or mixed curves; inactive = no such curve, though single readings can be large or run the other way.
Labels: active, inactive

compound: CCCCCCCCCCCCCCCCCC(=O)OCCCCCCCCCCCCCC(C)C
groupLabel: inactive
//
compound: CCCCNc1ccccc1
groupLabel: inactive
//
compound: C=CCn1c(=O)n([C@@H]2O[C@H](CO)[C@@H](O)[C@H]2O)c2nc(N)[nH]c(=O)c21
groupLabel: inactive
//
compound: CCO[Si](C)(OCC)OCC
groupLabel: inactive
//
compound: CCN1CCCC1CNC(=O)c1cc(S(N)(=O)=O)ccc1OC (stereo not given)
groupLabel: active
//
compound: Cc1nc(-c2ccc(OCC(C)C)c(C#N)c2)sc1C(=O)O
groupLabel: inactive
//
compound: COc1cc(C)cc(O)c1
groupLabel: inactive
//
compound: CCCC(C)CO (stereo not given)
groupLabel: active
//
compound: COC(=O)c1ccc(C(=O)OC)c(C(=O)OC)c1
groupLabel: inactive
//
compound: CC(=O)c1ccc(C)cc1
groupLabel: inactive
//
compound: c1cc(CN2CCCCC2)cc(OCCCNc2nc3ccccc3s2)c1
groupLabel: active
//
compound: NC(=O)CCCCC1CCSS1 (stereo not given)
groupLabel: inactive
//
compound: C/C=C1\C(=O)C[C@H]2[C@@H]3CCC4=CC(=O)CC[C@]4(C)[C@H]3CC[C@]12C
groupLabel: inactive
//
compound: CCCCCCC(CCCCCCCCCCC(=O)OCC(COC(C)=O)OC(C)=O)OC(C)=O (stereo not given)
groupLabel: inactive
//
compound: CC(CCO)CCCC(C)(C)O (stereo not given)
groupLabel: inactive
//
compound: CC/C=C\C#N
groupLabel: inactive
//
compound: C[C@H]1O[C@@H](n2cc(F)c(=O)[nH]c2=O)[C@H](O)[C@@H]1O
groupLabel: inactive
//
compound: C#CC(O)CCCCC (stereo not given)
groupLabel: inactive
//
compound: OC1OC[C@@H](O)[C@H](O)[C@H]1O (stereo not given in full)
groupLabel: inactive
//
compound: CCn1c(=O)c2c(nc(/C=C/c3ccc(OC)c(OC)c3)n2C)n(CC)c1=O
groupLabel: inactive
//
compound: CN(C)CCOC(c1ccc(Cl)cc1)c1ccccn1 (stereo not given)
groupLabel: active
//
compound: CC(C)c1cccc(C(C)C)c1N
groupLabel: inactive
//
compound: COCc1ccc(COC)cc1
groupLabel: inactive
//
compound: NS(=O)(=O)c1cc2c(cc1Cl)NC(CSCc1ccccc1)=NS2(=O)=O
groupLabel: active
//
compound: Oc1cc(O)c2c(c1)O[C@H](c1ccc(O)c(O)c1)[C@H](O)C2
groupLabel: inactive
//
compound: NC(=S)Nc1cccc2ccccc12
groupLabel: active
//
compound: CCCCCCCCCCCCCCC
groupLabel: inactive
//
compound: CCN1CCCC(OC(=O)C(c2ccccc2)c2ccccc2)C1 (stereo not given)
groupLabel: active
//
compound: NC(CS)C(=O)O (stereo not given)
groupLabel: inactive
//
compound: OC[C@H]1O[C@@H]2O[C@H]3[C@H](O)[C@@H](O)[C@@H](O[C@H]4[C@H](O)[C@@H](O)[C@@H](O[C@H]5[C@H](O)[C@@H](O)[C@@H](O[C@H]6[C@H](O)[C@@H](O)[C@@H](O[C@H]7[C@H](O)[C@@H](O)[C@@H](O[C@H]8[C@H](O)[C@@H](O)[C@@H](O[C@H]9[C@H](O)[C@@H](O)[C@@H](O[C@H]1[C@H](O)[C@H]2O)O[C@@H]9CO)O[C@@H]8CO)O[C@@H]7CO)O[C@@H]6CO)O[C@@H]5CO)O[C@@H]4CO)O[C@@H]3CO
groupLabel: inactive
//
compound: CCCC(C)C(=O)O (stereo not given)
groupLabel: active
//
compound: CN(C)C(=O)Nc1ccccc1
groupLabel: inactive
//
compound: N#CCc1ccccc1[N+](=O)[O-]
groupLabel: active
//
compound: CC(C)=CCC/C(C)=C/C(=O)O
groupLabel: inactive
//
compound: Nc1cc(C(Cl)=C(Cl)Cl)c(S(N)(=O)=O)cc1S(N)(=O)=O
groupLabel: inactive
//
compound: COc1ccc2cc(C=O)ccc2c1
groupLabel: inactive
//
compound: CNc1ncnc2nc[nH]c12
groupLabel: inactive
//
compound: COC(=O)C1=C(C)NC(C)=C(C(=O)OCC(C)=O)C1c1ccccc1[N+](=O)[O-] (stereo not given)
groupLabel: inactive
//
compound: C#CC(O)C(CC)CCCC (stereo not given)
groupLabel: inactive
//
compound: COC(=O)CCCCCCCCC(=O)OC
groupLabel: inactive
//
compound: Nc1nc(F)nc2c1ncn2[C@@H]1O[C@H](CO)[C@@H](O)[C@@H]1O
groupLabel: active
//
compound: COc1nc(C)nc(N)n1
groupLabel: inactive
//
compound: Nc1ccn(C2CO[C@H](CO)O2)c(=O)n1 (stereo not given in full)
groupLabel: inactive
//
compound: OCc1ccccn1
groupLabel: inactive
//
compound: COc1cc(C(=O)N2CCOCC2)cc(OC)c1OC
groupLabel: inactive

----------
- experimentNotes: qHTS assay for small molecules that induce genotoxicity in human embryonic kidney cells expressing luciferase-tagged ATAD5 - cell viability (AID 651634); also: nearly all actives have a fitted effect of over 25% in size
- conditionLabel: HEK293T ATAD5-luc cells viability, CellTiter-Fluor, 15.5 h; series mostly up to 83.3 µM
Inconclusive results are not listed. Active and inactive are the calls of the source. Calls come from the whole dose curve.
Labels: yes = active, no = inactive

molecule: COc1cc(O)cc(O)c1
groupLabel: no
--
molecule: C=C[Si](OC)(OC)OC
groupLabel: no
--
molecule: COC(=O)CCCCCCCCC(=O)OC
groupLabel: no
--
molecule: COC(=O)C1=C(C)NC(C)=C(C(=O)OCC(C)=O)C1c1ccccc1[N+](=O)[O-] (stereo unspecified)
groupLabel: yes
--
molecule: CC(C=O)Cc1ccc(C(C)C)cc1 (stereo unspecified)
groupLabel: no
--
molecule: CC(C)(C)CC(C)(C)N
groupLabel: no
--
molecule: NS(=O)(=O)c1cc2c(cc1Cl)NC(CSCc1ccccc1)=NS2(=O)=O
groupLabel: no
--
molecule: CN1[C@@H]2CC[C@H]1CC(NC(=O)n1c(=O)[nH]c3ccccc31)C2 (stereo partly specified)
groupLabel: no
--
molecule: CCN1CCCC1CNC(=O)c1cc(S(N)(=O)=O)ccc1OC (stereo unspecified)
groupLabel: no
--
molecule: CCCCOCC(C)OCC(C)O (stereo unspecified)
groupLabel: no
--
molecule: C=C(C)C(=O)OCCC(C)OC(=O)C(=C)C (stereo unspecified)
groupLabel: no

----------
- tgt: Estrogen receptor (Homo sapiens) (UniProt P03372)
- Sequence (P03372 whole entry, looked up): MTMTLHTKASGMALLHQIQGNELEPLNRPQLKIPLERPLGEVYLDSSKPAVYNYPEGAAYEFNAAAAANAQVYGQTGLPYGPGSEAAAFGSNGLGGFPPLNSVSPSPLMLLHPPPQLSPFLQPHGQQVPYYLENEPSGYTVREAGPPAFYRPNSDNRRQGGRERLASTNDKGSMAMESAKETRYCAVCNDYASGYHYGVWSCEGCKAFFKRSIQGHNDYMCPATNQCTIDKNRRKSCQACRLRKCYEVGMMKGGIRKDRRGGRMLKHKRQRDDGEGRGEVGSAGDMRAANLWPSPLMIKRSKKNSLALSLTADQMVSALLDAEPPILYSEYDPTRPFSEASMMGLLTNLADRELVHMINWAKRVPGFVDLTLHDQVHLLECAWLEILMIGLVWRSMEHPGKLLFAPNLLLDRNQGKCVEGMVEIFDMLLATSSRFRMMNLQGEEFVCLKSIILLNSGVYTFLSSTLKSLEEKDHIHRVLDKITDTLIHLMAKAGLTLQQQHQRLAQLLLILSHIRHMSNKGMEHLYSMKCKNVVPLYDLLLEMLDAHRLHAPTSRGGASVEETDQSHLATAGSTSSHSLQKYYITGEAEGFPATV
- experimentNotes: qHTS assay to identify small molecule agonists of the estrogen receptor alpha (ER-alpha) signaling pathway (AID 743075);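 also: HEK293 GripTite cells with ER-alpha and UAS-driven beta-lactamase reporter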
- conditionLabel: HEK293 ER-alpha-UAS-bla, beta-lactamase FRET ratio, 18 h; series mostly up to 70.1 µM
Inconclusive results are not listed. Active and inactive are the calls of the source. Calls follow the shape of the full dose curve.

compound: CCCCCN(CCCCC)C(=O)C(CCC(=O)O)NC(=O)c1ccc(Cl)c(Cl)c1 (configuration not stated)
outcome: inactive

compound: CC/C=C\CCCCO
outcome: inactive

compound: O=C(O)c1ccccc1S
outcome: inactive

compound: CCN1CCCC(OC(=O)C(c2ccccc2)c2ccccc2)C1 (configuration not stated)
outcome: inactive

compound: C=CCn1c(=O)n([C@@H]2O[C@H](CO)[C@@H](O)[C@H]2O)c2nc(N)[nH]c(=O)c21
outcome: inactive

compound: CCCCCCOC(=O)c1ccccc1O
outcome: inactive

compound: OCCN1C[C@H](O)[C@@H](O)[C@H](O)[C@H]1CO
outcome: inactive

----------
- tgt: Nuclear receptor subfamily 1 group I member 3 (Homo sapiens)
- experimentNotes: qHTS assay to identify small molecule agonists of the constitutive androstane receptor (CAR) signaling pathway (AID 1224839); also: nearly all actives have a fitted effect of over 15% in size;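 as to activation: HepG2 cells stably carrying human CAR and a CYP2B6 luciferase reporter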
- conditionLabel: HepG2 hCAR CYP2B6-luciferase, agonist mode, 24 h; series mostly up to 92.4 µM
Inconclusive results are not listed. Activity calls are given as the source filed them. Calls come from the whole dose curve; as a rule, active = well fitted activation curve with a large enough effect in the repeat runs; inconclusive = weak or mixed curves; inactive = no such curve, though single readings can be large or run the other way.
Outcome codes: true = active, false = inactive

compound: CCCCNc1ccccc1
groupLabel: false
--
compound: N#CC1(O)CCCCC1
groupLabel: false
--
compound: Oc1ccc2c(c1)OC[C@@H](N1CCC(O)(c3ccc(F)cc3)CC1)[C@H]2O
groupLabel: true
--
compound: CCCCCCC(=O)OCC
groupLabel: false
--
compound: O=c1[nH]c(=O)n([C@H]2O[C@H](CO)[C@@H](O)[C@@H]2O)cc1/C=C\Br
groupLabel: false
--
compound: CCCc1ccccc1O
groupLabel: false
--
compound: CC(C)COC(=O)C(C)C
groupLabel: false
--
compound: CC(=O)N[C@@H](CCC(N)=O)C(=O)O
groupLabel: false
--
compound: CCCCC1CCCCC(=O)O1 (stereo not drawn)
groupLabel: false
--
compound: CNC(=O)c1c(I)c(NC(=O)CCCCC(=O)Nc2c(I)c(C(=O)O)c(I)c(C(=O)NC)c2I)c(I)c(C(=O)O)c1I
groupLabel: false
--
compound: CC(C)(O)Cc1ccccc1
groupLabel: false
--
compound: CCCOc1ccccc1-c1nc2n[nH]nc2c(=O)[nH]1
groupLabel: false
--
compound: CC12CCC(CC1=O)C2(C)C (stereo not drawn)
groupLabel: false

Value source: PubChem BioAssay (Tox21)
